# Method summary: Assessment of solubility (McIlvaine buffers, 24 h shake, UPLC-UV)
# Type: physicochemical
# Run parameters: pH 6.8, aqueous buffer, kinetic from dmso stock
Quantity: solubility at 24 h (µg/mL)

1. COc1c(C(=O)O)cnn1-c1cccc(-c2cccc(C)c2OCc2ccc3c(c2C)CCN(CC2CC(F)(F)C2)C3)n1 :: 78
2. Cc1cccc(-c2cccc(-n3ncc(C(=O)O)c3OC(C)C)n2)c1OCc1ccc2c(c1)CCN(C1CCOCC1)C2 :: 87
3. COc1c(C(=O)O)cnn1-c1cccc(-c2cccc(C)c2OCc2ccc3c(c2F)CCN([C@@H]2CCOC2)C3)n1 :: 62
4. CCOc1c(C(=O)O)cnn1-c1cccc(-c2cccc(C)c2OCc2ccc3c(c2C)CCN(CC2CCCOC2)C3)n1 (centres unmarked) :: 79
5. Cc1cccc(-c2cccc(-n3ncc(C(=O)O)c3OC(C)C)n2)c1OCc1ccc2c(c1C)CCN([C@H]1CCCOC1)C2 :: 85
